src = patent US8946439B2

# assay_system: hP2X3 (Homo sapiens)
# Construct: expressed in transfected cells; host or cells: e.g. HEK293 or 1321N1
# Sequence (P56373 whole entry): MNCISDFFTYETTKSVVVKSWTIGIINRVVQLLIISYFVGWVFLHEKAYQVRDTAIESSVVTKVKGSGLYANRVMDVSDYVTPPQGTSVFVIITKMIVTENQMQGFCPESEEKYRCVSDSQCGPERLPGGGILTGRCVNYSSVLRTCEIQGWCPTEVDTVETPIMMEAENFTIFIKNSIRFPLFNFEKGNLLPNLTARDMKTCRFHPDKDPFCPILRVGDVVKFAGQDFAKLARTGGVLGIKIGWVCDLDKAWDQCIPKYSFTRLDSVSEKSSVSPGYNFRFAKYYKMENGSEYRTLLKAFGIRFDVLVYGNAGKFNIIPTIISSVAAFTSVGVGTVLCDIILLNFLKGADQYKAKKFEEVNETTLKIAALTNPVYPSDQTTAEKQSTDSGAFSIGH
# experiment_description: Calcium uptake assay (P2X antagonist assay), P2X3 homomer
# Format: cell-based
# condition_context: calcium uptake assay, hP2X3; read-out: IC50 hP2X3 (nM), Ca Influx
Reported IC50 values for the following compounds.

// solved cases for IC50 follow
1) Cc1ccc(-c2cc(C(=O)NCc3ccc4ocnc4c3)cc(C(=O)N3CCCC3)c2)cc1 [Compound 90] :: < 100 nM
2) Cc1ccc(-c2cc(C(=O)NCc3ccc(C)nc3)cc(S(=O)(=O)N3CCCC3)c2)c(C#N)c1 [Compound 148] :: < 100 nM
3) Cc1ccc(-c2cc(C(=O)NCc3ccc(C)nc3)cc(C(=O)N3CCCC3)c2)cc1 [Compound 60] :: < 100 nM

Output measured IC50 for this item: Cc1ccc(-c2cc(S(=O)(=O)N3CCCC3)cc(C(=O)N[C@H](C)c3cnc(C)nc3)c2C)cc1 [Compound 65]
100 to 500 nM

Output measured IC50 for this item: Cc1ccc(-c2cc(C(=O)NCc3ccc(C)nc3)cc(C(=O)N3CCc4ccccc43)c2)cc1 [Compound 186]
100 to 500 nM

Output measured IC50 for this item: Cc1ccc(-c2cc(C(=O)NCc3ccc(Cl)c(S(=O)(=O)NC4CC4)c3)cc(C(=O)N3CCCC3)c2)cc1 [Compound 73]
100 to 500 nM

Output measured IC50 for this item: Cc1ccc(-c2cc(C(=O)NCc3ccc(Cl)nc3)cc(C(=O)N3CCCC3)c2)c(C#N)c1 [Compound 69]
< 100 nM

Output measured IC50 for this item: Cc1ccc(-c2cc(C(=O)NCc3ccc4c(c3)OCO4)cc(C(=O)N3CCCC3)c2)cc1 [Compound 98]
100 to 500 nM

Output measured IC50 for this item: Cc1ccc(-c2cc(C(=O)O)cc(C(=O)NCc3cnc(C)nc3)c2)cc1 [Compound 21]
100 to 500 nM

====

# assay_system: hP2X2/3H (Homo sapiens, UniProt P56373+Q9UBL9)
# Construct: expressed in transfected cells; host or cells: e.g. HEK293 or 1321N1
# Sequence (Q9UBL9 whole entry): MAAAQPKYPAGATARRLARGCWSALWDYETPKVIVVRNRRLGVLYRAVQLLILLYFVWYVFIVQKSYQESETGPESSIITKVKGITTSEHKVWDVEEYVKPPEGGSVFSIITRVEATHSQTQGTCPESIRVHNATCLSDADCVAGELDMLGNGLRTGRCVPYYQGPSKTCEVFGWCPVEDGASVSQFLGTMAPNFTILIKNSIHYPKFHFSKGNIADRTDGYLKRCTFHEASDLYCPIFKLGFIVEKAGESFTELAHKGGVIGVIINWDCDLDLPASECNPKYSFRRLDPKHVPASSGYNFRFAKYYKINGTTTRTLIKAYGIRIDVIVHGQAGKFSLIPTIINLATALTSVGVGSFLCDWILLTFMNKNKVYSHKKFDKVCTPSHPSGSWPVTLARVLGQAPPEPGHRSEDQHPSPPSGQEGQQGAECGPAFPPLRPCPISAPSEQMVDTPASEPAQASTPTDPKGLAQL
# Sequence (P56373 whole entry): as the sequence (P56373 whole entry) above
# experiment_description: Calcium uptake assay (P2X antagonist assay), P2X2/3 heteromer
# Format: cell-based
# condition_context: Ca influx (calcium uptake assay), hP2X2/3H; read-out: IC50 hP2X2/3H
pIC50: −log10 of the molar value.
Reported pIC50 values for the following compounds.

// solved cases for pIC50 follow
1. Cc1ccc(-c2cc(OC3CNCC3O)cc(C(=O)N[C@H](C)c3ccc(C)nc3)c2)nc1 (stereo partly drawn) :: 6.30 to 7.00
2. Cc1ccc(-c2cc(C(=O)N[C@H](C)c3ccc(C)nc3)cc(C(O)CO)c2)nc1 (stereo partly drawn) :: 6.30 to 7.00
3. Cc1ccc(-c2cc(OCC3CCOC3)cc(C(=O)N[C@H](C)c3ccc(C)nc3)c2)cc1 (stereo partly drawn) :: > 7.00
4. Cc1ccc(-c2cc(C(=O)NCc3ccc(C)nc3)cc(C(O)C(F)(F)F)c2)c(C#N)c1 (stereo not drawn) :: > 7.00

Output measured pIC50 for this item: Cc1ccc(-c2cc(C(=O)N[C@H](C)c3cnc(C)nc3)cc(C(O)C(F)(F)F)c2)c(C#N)c1 (stereo partly drawn)
> 7.00
